system: Zymoseptoria tritici; assay: Leaf blotch of wheat (SEPTTR), disease control on wheat seedlings; assay type: in vivo; conditions: 72 h, high volume application at 100 ppm, 3 Day Curative, read-out: SEPTTR disease control, 3DC, HV activity
quantity-name: pest or weed control at 100 ppm

# lookup: pest or weed control at 100 ppm of `COc1ccnc(C(=S)N[C@@H](C)C(=O)O[C@@H](C)[C@@H](c2ccccc2)C2CCCC2)c1O` < 0%

# lookup: pest or weed control at 100 ppm of `COc1ccnc(C(=O)N[C@@H](C)C(=O)O[C@@H](C)[C@H](c2c(F)cccc2Cl)C(C)C)c1O` > 80%

# lookup: pest or weed control at 100 ppm of `COc1cc[n+]([O-])c(C(=O)N[C@@H](C)C(=O)O[C@@H](C)[C@@H](c2ccc(C)cc2C)C2CCCC2)c1O` > 80%

# lookup: pest or weed control at 100 ppm of `COc1ccnc(C(=O)N[C@@H](C)C(=O)O[C@@H](C)[C@@H](c2ccccc2)C(C)C)c1O` < 80%

# lookup: pest or weed control at 100 ppm of `COc1ccnc(C(=O)N[C@@H](C)C(=O)O[C@@H](C)[C@@H](c2ccc(C)cc2C)C2CCCC2)c1O` < 80%

# lookup: pest or weed control at 100 ppm of `COc1ccnc(C(=S)N[C@@H](C)C(=O)O[C@@H](C)[C@H](c2ccc(F)cc2C)C(C)C)c1O` > 80%

# lookup: pest or weed control at 100 ppm of `COc1ccnc(C(=O)N[C@@H](C)C(=O)O[C@@H](C)[C@@H](c2ccc(F)cc2C)C(C)C)c1O` < 80%

# lookup: pest or weed control at 100 ppm of COc1ccnc(C(=S)N[C@@H](C)C(=O)OC(C)[C@H](c2ccccc2)C2CCCC2)c1O (some centres unmarked) < 80%

# lookup: pest or weed control at 100 ppm of `COc1cc(F)ccc1[C@H](C1CCCC1)[C@H](C)OC(=O)[C@H](C)NC(=O)c1nccc(OC)c1O` > 80%

# lookup: pest or weed control at 100 ppm of `COc1ccnc(C(=O)N[C@@H](C)C(=O)O[C@@H](C)[C@H](c2ccc3c(c2)OCO3)C(C)C)c1O` < 0%

# lookup: pest or weed control at 100 ppm of `COc1ccnc(C(=O)N[C@@H](C)C(=O)O[C@H](C)[C@H](c2ccc(F)cc2C)C2CCCC2)c1O` < 80%

# lookup: pest or weed control at 100 ppm of CCC(C)[C@H](c1ccc(C)cc1C)[C@H](C)OC(=O)[C@H](C)NC(=O)c1nccc(OC)c1O (some centres unmarked) < 80%

# lookup: pest or weed control at 100 ppm of `COc1ccnc(C(=O)N[C@@H](C)C(=O)O[C@@H](C)[C@H](c2ccc(F)cc2F)C(C)C)c1O` > 80%

# lookup: pest or weed control at 100 ppm of `COc1ccnc(C(=O)N[C@@H](C)C(=O)O[C@H](C)[C@H](c2ccc(F)cc2C)C2CCCCC2)c1O` < 80%
